test system: HIV-1 Env of isolate MGRM-F1-018 (subtype F) (HIV-1)
experimental protocol: cell-based or functional assay
readout type: IC50 (neutralization)

[
  {
    "binder": "PGT-137 (antibody, V domains shown) VH: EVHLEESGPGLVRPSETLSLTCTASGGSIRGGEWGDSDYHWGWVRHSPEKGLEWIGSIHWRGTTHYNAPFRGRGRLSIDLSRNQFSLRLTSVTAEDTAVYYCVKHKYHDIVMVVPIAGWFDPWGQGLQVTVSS VL: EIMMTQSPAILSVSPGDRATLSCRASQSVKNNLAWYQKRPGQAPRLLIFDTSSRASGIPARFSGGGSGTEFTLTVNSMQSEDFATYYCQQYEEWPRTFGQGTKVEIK",
    "experimental value": "> 50 µg/mL"
  },
  {
    "binder": "PGT-126 (antibody, V domains shown) VH: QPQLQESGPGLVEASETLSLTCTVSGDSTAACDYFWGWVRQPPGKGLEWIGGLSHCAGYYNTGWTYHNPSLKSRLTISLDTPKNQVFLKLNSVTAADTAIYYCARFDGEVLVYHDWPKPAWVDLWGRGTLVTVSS VL: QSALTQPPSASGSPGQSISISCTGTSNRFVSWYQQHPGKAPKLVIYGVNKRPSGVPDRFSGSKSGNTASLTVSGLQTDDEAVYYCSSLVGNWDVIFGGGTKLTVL",
    "experimental value": "14.9 µg/mL"
  },
  {
    "binder": "PGT-130 (antibody, V domains shown) VH: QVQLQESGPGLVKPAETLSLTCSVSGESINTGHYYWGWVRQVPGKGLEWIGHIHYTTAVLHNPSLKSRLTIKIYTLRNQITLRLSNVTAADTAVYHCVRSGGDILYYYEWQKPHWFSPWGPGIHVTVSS VL: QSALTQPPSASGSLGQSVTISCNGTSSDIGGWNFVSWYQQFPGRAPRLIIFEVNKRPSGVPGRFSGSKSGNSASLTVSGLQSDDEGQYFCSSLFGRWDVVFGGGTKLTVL",
    "experimental value": "> 50 µg/mL"
  }
]
